Each recorded value in this set is attributed to paper PMC9723946.

# target_system: G3BP1 NTF2-like domain (1-139) F15W (human, UniProt Q13283 1-139, F15W)
# Sequence (Q13283 1-139 F15W): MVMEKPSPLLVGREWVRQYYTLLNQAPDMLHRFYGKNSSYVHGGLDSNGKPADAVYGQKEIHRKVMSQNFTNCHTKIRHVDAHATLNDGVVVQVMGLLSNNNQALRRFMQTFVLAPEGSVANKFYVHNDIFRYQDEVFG
# experimental_protocol: fluorescence polarisation
Where no end group is shown, it is not given here. Ahx = NCCCCCC(=O)O
readout_kind: Kd (µM)

{fluorescein-Ahx}-YNFIQDSMLDFE [Caprin1-derived dodecamer reporter peptide F*-YNFIQDSMLDFE]; 9.3
